Cited source: paper PMC8809517

EXPERIMENTAL_TARGET: T1, GFP-9S library array, motif 4 ND D124E (synthetic construct, D124E)
T1 chain: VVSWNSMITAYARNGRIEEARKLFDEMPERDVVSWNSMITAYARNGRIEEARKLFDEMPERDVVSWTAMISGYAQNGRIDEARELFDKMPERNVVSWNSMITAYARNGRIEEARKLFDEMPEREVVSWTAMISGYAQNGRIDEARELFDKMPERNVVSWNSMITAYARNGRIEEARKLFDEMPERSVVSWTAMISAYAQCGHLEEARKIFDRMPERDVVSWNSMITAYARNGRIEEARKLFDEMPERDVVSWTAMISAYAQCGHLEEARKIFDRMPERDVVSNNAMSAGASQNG
ASSAY_PROCEDURE: high-throughput RNA pulldown from lysate on Ni-NTA beads; HRP: 50 mM Tris pH 8, 150 mM NaCl, 1 mM beta-mercaptoethanol, 50 ug/ml BSA, 3 ug/ml yeast RNA, 0.5% heparin; ITC and FP: Tris pH 8, 200 mM KCl, 5% glycerol; MST: 50 mM Tris pH 8, 200 mM NaCl, 1 mM DTT, BSA, heparin, 0.05% Tween 20
CONDITION_DESCRIPTION: tags: N-terminal His-eGFP; label: 5' Cy5
Reported pKd values are given for each entry in this list.
Just the number, please; pKd means minus log10 of the concentration in mol/L.

AUUACACGUGA (ssRNA) [Cy5-rpoA] : 7.98

Q. GET /values?readout=pKd&item= AUUAGACGUGA (ssRNA) [Cy5-rpoA-G]
A. 6.56
